Where do the numbers come from? From patent US10174024B2.

target: BRD4 (Homo sapiens, UniProt O60885); assay: Time Resolved Fluorescence Resonance Energy Transfer (TR-FRET) binding assay, FRET BRD4; settings: one of the FRET assays described (BRD4 bromodomain construct not specified); read-out: FRET BRD4 IC50
Assign IC50 to each entry below.

A selection of reference data follows.
Compound: Cc1noc(C)c1-c1cnc2c3cc(C4CCN(C(=O)CO)CC4)ccc3n([C@H](c3ccccc3)C3CCOCC3)c2c1 [Example 6]
IC50: < 5 nM

Compound: [2H]C([2H])([2H])c1nnn(C)c1-c1cnc2c3ccc(C4(O)CCOCC4)c(F)c3n([C@H](c3ccccc3)C3CCOCC3)c2c1 [Example 62]
IC50: < 1 nM

Compound: Cc1nnn(C)c1-c1cnc2c3ccc(N4CCCOC4=O)cc3n([C@H](c3ccccc3)C3CCOCC3)c2c1 [Example 12]
IC50: < 5 nM

Compound: Cc1nnn(C)c1-c1cnc2c3c(N4CCN(CC(N)=O)CC4)ccc(S(C)(=O)=O)c3n([C@H](c3ccccc3)C3CCOCC3)c2c1 [Example 22]
IC50: < 5 nM

Compound: Cc1nnn(C)c1-c1cnc2c3c(N4CCNCC4)ccc(S(C)(=O)=O)c3n([C@H](c3ccccc3)C3CCOCC3)c2c1 [Example 21]
IC50: < 5 nM

Compound: Cc1nnn(C)c1-c1cnc2c3c(N4CCN(C(=O)OC(C)(C)C)CC4)ccc(S(C)(=O)=O)c3n([C@H](c3ccccc3)C3CCOCC3)c2c1 [Example 25]
IC50: < 5 nM

Compound: Cc1nnn(C)c1-c1cnc2c3ccc(N4CCN(C5CCN(C)CC5)CC4)cc3n([C@H](c3ccccc3)C3CCOCC3)c2c1 [Example 48]
IC50: < 1 nM

Compound: [2H]C([2H])([2H])c1nnn(C)c1-c1cnc2c3ccc(N4CCC(F)(F)CC4)cc3n(C(c3ncccc3F)C3CCOCC3)c2c1 (stereo not shown) [Example 65]
IC50: < 1 nM

Batch request: IC50 per item, same order as input.
1. [2H]C([2H])([2H])c1nnn(C)c1-c1cnc2c3ccc(C4(C)COC(=O)N4)c(F)c3n([C@H](c3ccccc3)C3CCOCC3)c2c1 (stereo partly shown) [Example 55]
2. Cc1nnn(C)c1-c1cnc2c3ccc(-c4ccon4)cc3n([C@H](c3ccccc3)C3CCOCC3)c2c1 [Example 2]
3. Cc1nnn(C)c1-c1cnc2c3ccc(-c4ccnn4C)cc3n([C@H](c3ccccc3)C3CCOCC3)c2c1 [Example 1]
4. Cc1nnn(C)c1-c1cnc2c3ccc(N4CCC(F)(F)CC4)cc3n(C(c3ccccc3)C3CCC(F)(F)CC3)c2c1 (single isomer, unassigned) [Example 75]
5. CC(=O)OCC(=O)N1CCN(c2ccc3c(c2)c2ncc(-c4c(C)nnn4C)cc2n3[C@H](c2ccccc2)C2CCOCC2)CC1 [Example 14]

["< 1 nM", "< 5 nM", "< 5 nM", "< 5 nM", "< 5 nM"]
